- Tgt: truncated human beta-secretase (residues 1-458, His6-tagged at the C-terminus) (Homo sapiens, UniProt P56817)
- Construct: truncated human beta-secretase (residues 1-458, His6-tagged at the C-terminus); His6 (C); made in house; host or cells: insect cells D. melanogaster S2 (baculovirus expression system (so in the source))
- Sequence (P56817 22-458): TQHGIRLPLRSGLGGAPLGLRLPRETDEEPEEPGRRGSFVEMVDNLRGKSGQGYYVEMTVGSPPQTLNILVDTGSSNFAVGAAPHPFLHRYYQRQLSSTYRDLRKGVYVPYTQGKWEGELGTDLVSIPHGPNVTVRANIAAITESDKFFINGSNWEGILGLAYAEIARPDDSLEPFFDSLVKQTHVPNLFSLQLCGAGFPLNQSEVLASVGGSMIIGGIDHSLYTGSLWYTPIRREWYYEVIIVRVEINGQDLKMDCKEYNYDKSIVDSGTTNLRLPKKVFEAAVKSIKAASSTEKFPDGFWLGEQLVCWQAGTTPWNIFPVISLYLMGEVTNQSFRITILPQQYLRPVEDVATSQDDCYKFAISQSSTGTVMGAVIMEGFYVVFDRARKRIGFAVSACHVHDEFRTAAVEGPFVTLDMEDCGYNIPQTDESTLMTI
- Assay Procedure: BACE fluorescence quench assay
- Format: biochemical
- Test Settings: in vitro enzyme activity, BACE fluorescence assay, pH 4.5; read-out: IC50
Recorded Metric: IC50

// solved cases for IC50 follow
Molecule: CN1C(=O)C2(CC(c3ccccc3)Oc3ccc(-c4cc(N)cc(C#N)c4)cc32)N=C1N (stereo not drawn) [Compound 17]
IC50: 500 to 1000 nM
//
Molecule: CC1CC[C@]2(CO1)C[C@]1(N=C(N)N(C)O1)c1cc(-c3cc(F)cc(Cl)c3)ccc1O2 (stereo partly drawn) [Compound 298]
IC50: 100 to 500 nM
//
Molecule: CN1OC2(C[C@H]([C@@H]3CCOC(C)(C)C3)Oc3ccc(-c4cc(F)cc(Cl)c4)cc32)N=C1N (stereo partly drawn) [Compound 299]
IC50: 100 to 500 nM

[Q] # lookup: IC50 of CN1OC2(CC(c3cccnc3)Oc3ccc(-c4cccc(C#N)c4)cc32)N=C1N (stereo not drawn) [Compound 95]
[A] 1000 to 5000 nM

[Q] # lookup: IC50 of CN1C(=O)[C@@]2(C[C@@H](c3ccc(F)cc3)Oc3ccc(-c4cccc(C#N)c4)cc32)N=C1N [Compound 19a]
[A] 500 to 1000 nM

[Q] # lookup: IC50 of CN1C(=O)[C@@]2(C[C@@]3(CCCOC3)Oc3ccc(-c4cc(F)cc(C#N)c4)cc32)N=C1N [Compound 356]
[A] 500 to 1000 nM

[Q] # lookup: IC50 of CC(C)c1cccc(-c2ccc3c(c2)C2(CC(C4CCCOC4)O3)N=C(N)N(C)O2)c1 (stereo not drawn) [Compound 101]
[A] 1000 to 5000 nM

[Q] # lookup: IC50 of Cc1ccc(F)cc1-c1ccc2c(c1)[C@]1(C[C@@]3(CCCOC3)O2)N=C(N)N(C)C1=O [Compound 385]
[A] 1000 to 5000 nM

[Q] # lookup: IC50 of CN1O[C@]2(C[C@H]([C@H]3CCOC(C)(C)C3)Oc3ccc(-c4cccc(C#N)c4)cc32)N=C1N [Compound 293]
[A] 100 to 500 nM
